- experimental-system: T1, human CD3 on CD3+ Jurkat cells (human, UniProt P07766 23-207)
- T1 construct: whole, on cells; Native CD3 complex on cells; the other CD3 chains are not specified for this assay; also called Human CD3+ Jurkat
- T1 sequence (P07766 23-207): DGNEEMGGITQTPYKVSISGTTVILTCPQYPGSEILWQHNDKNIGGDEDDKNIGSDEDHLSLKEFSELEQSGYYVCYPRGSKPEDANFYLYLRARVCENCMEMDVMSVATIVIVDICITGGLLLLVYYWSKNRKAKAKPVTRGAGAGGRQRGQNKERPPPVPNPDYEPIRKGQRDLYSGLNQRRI
- experiment-summary: flow cytometry, 100 nM IgG on CD3+ Jurkat cells, pH 7.4
property-measured: MFI pH 7.4 (MFI)
Provide only the numeric value, understood in MFI.

For orientation, consider the following solved cases.
binder	MFI pH 7.4 / MFI
SAD10318_P02_H04 (ADI-48594) (antibody, V domains shown, IgG; also called Ab169) VH: QVQLVQSGAEVKKPGASVKVSCKASGFNIKDYYMHWVRQAPGQRLEWMGWIDLENANTIYDAKFQGRVTITRDTSASTAYMELSSLRSEDTAVYYCARDAYHRYFYDHWGQGTLVTVSS VL: DIVMTQSPDSLAVSLGERATINCKSSQSLLHARTGHNYLAWYQQKPGQPPKLLIYWASTRESGVPDRFSGSGSGTDFTLTISSLQAEDVAVYYCKQSYSRRTFGGGTKVEIK	1320
SAD10320_P04_E10 (ADI-48657) (antibody, V domains shown, IgG; also called Ab106) VH: QVQLVQSGAEVKKPGASVKVSCKASGFNIKDYYMHWVRQAPGQRPEWMGWIDLENANTIYDAKFQGRVTITRDTSASTAYMELSSLRSEDTAVYYCARDAYGHDFYDVWGQGTLVTVSS VL: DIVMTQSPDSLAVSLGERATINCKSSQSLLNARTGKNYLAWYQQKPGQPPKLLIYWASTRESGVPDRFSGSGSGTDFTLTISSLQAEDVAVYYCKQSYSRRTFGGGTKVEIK	67
SAD10318_P02_D05 (ADI-48598) (antibody, V domains shown, IgG; also called Ab181) VH: QVQLVQSGAEVKKPGASVKVSCKASGFNIKDYYMHWVRQAPGQRLEWMGWIDLENANTIYDAKFQGRVTITRDTSASTAYMELSSLRSEDTAVYYCARDHYGHYFYDVWGQGTLVTVSS VL: DIVMTQSPDSLAVSLGERATINCKSSQSLLNARTGKNHLAWYQQKPGQPPKLLIYWASTRESGVPDRFSGSGSGTDFTLTISSLQAEDVAVYYCKQSYHHRTFGGGTKVEIK	33
SAD10320_P02_E04 (ADI-48649) (antibody, V domains shown, IgG; also called Ab72) VH: QVQLVQSGAEVKKPGASVKVSCKASGFNIKDYYMHWVRQAPGQRLEWMGWIDLENANTIYDAKFQGRVTITRDTSASTAYMELSSLRSEDTAVYYCARDAYHEYFYDVWGQGTLVTVSS VL: DIVMTQSPDSLAVSLGERATINCKSSQSLLNARTGKNYLAWYQQKPGQPPKLLIYWASTRESGVPDRFSGSGSGTDFTLTISSLQAEDVAVYYCKQSHVRRTFGGGTKVEIK	639
SAD10318_P01_H03 (ADI-48591) (antibody, V domains shown, IgG; also called Ab102) VH: QVQLVQSGAEVKKPGASVKVSCKASGFNIKDYYMHWVRQAPGQRLEWMGWIDLENANTIYDAKFQGRVTITRDTSASTAYMELSSLRSEDTAVYYCAHDAYGHYFYDVWGQGTLVTVSS VL: DIVMTQSPDSLAVSLGERATINCKSSQSLLNARTGHNYLAWYQQKPGQPPKLLIYWASTRESGVPDRFSGRGSGTDFTLTISSLQAEDVAVYYCKQSYHHRTFGGGTKVEIK	140

For SAD10320_P01_A02 (ADI-48646) (antibody, V domains shown, IgG; also called Ab53) VH: QVQLVQSGAEVKKPGASVKVSCKASGFNIKDYYMHWVRQAPGQRLEWMGWIDLENANTIYDAKFQGRVTITRDTSASTAYMELSSLRSEDTAVYYCARDAYPHYFYDVWGQGTLVTVSS VL: DIVMTQSPDSLAVSLGERATINCKSSQSLLNARTGKNYLAWYQQKPGQPPKLLIYWASTRESGVPDRFSGSGSGTDFTLTISSLQAEDVAVYYCKQSYHERTFGGGTKVEIK the binder record lists MFI pH 7.4 as 53

For SAD10319_P01_H02 (ADI-48625) (antibody, V domains shown, IgG; also called Ab242) VH: QVQLVQSGAEVKKPGASVKVSCKASGYTFTDYAMHWVRQAPGQRLEWMGWINPSTGATVYSQKFQGRVTITRDTSASTAYMELSSLRSEDTAVYYCARDAYHHYFYDVWGQGTLVTVSS VL: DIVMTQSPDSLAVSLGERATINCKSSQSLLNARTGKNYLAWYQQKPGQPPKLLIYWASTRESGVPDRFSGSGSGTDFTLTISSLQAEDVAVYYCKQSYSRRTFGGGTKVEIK the binder record lists MFI pH 7.4 as 128
